Exercise: state measured bioavailability for each of the molecules provided.
# Assay procedure: Oral bioavailability in CD-1 mice
# Particulars: male, CD-1, mouse, blood

Provide bioavailability values for the following items, in order.
1. C#Cc1c(F)ccc2cc(O)cc(-c3nc(OC)c4c(N5CC6CCC(C5)N6)nc(OCC5(CN6CCC(C#N)C6)CC5)nc4c3F)c12 (stereo not drawn)
2. C#Cc1c(F)ccc2cc(O)cc(-c3nc(OC)c4c(N5CC6CCC(C5)N6)nc(OCC5(CN6CCC(F)CC6)CC5)nc4c3F)c12
3. C#Cc1c(F)ccc2cc(O)cc(-c3ncc4c(N5CC6CCC(C5)N6)nc(OCC5(CN6CC7C(C#N)C7C6)CC5)nc4c3F)c12 (stereo not drawn)
4. C#Cc1c(F)ccc2cc(O)cc(-c3nc(OC)c4c(N5CC6CCC(C5)N6)nc(OCC5(CN6CCCC6)CC5)nc4c3F)c12 [Ref. 3, reference compound]
5. C#Cc1c(F)ccc2cc(O)cc(-c3nc(OC)c4c(N5CC6CCC(C5)N6)nc(OCC5(CN(C)C)CC5)nc4c3F)c12 [Ref. 4, reference compound]

Result:
1.8%
9.39%
2.38%
0.23%
0.23%

Ask: Fill in the blank: the reported bioavailability of C#Cc1c(F)ccc2cc(O)cc(-c3nc(OC)c4c(N5CC6CCC(C5)N6)nc(OCC5(CN6CCC7CC76)CC5)nc4c3F)c12 (stereo not drawn) is ____.
Result: 2.37%

---

# Assay procedure: Oral bioavailability in CD-1 mice
# Particulars: male, CD-1, mouse, blood, 25 mg/kg
Exercise: state measured bioavailability for each of the compounds provided.
One number for each entry, in %.

{"columns": ["Compound", "Quantity unit", "bioavailability"],
 "data": [
  ["C#Cc1c(F)ccc2cc(O)cc(-c3nc(OC)c4c(N5CC6CCC(C5)N6)nc(OCC5(CN6CCC6)CC5)nc4c3F)c12 [Ref. 2, reference compound]", "%", 0.15],
  ["C#Cc1c(F)ccc2cc(O)cc(-c3ncc4c(N5CC6CCC(C5)N6)nc(OCC5(CN6CCC(F)CC6)CC5)nc4c3F)c12", "%", 0.8]
]}

Continue with the compound presented below.
Ask: Fill in the blank: the reported bioavailability of [2H]C([2H])([2H])Oc1nc(-c2cc(O)cc3ccc(F)c(C#C)c23)c(F)c2nc(OCC3(CN4CC5CC5C4)CC3)nc(N3CC4CCC(C3)N4)c12 (stereo not drawn) is ____.
Result: 5.4

---

# Assay system: KRAS (G12D)/SOS1 (Homo sapiens, UniProt P01116, G12D)
# Sequence (P01116 1-188 isoform P01116-2 G12D): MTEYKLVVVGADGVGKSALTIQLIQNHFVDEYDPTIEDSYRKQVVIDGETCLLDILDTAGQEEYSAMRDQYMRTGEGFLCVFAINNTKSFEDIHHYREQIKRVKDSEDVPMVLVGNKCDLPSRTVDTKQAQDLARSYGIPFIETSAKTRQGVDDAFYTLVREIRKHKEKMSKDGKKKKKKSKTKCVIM
# Assay procedure: KRAS (G12D)/SOS1 homogeneous time-resolved fluorescence (HTRF) assay
# Particulars: absence of GTP, 4° C. for 3 hr
pIC50: −log10 of the molar value.
Exercise: state measured pIC50 for each of the compounds provided.

{"columns": ["Compound", "pIC50"],
 "data": [
  ["C#Cc1c(F)ccc2cc(O)cc(-c3nc(N(C)C)c4c(N5CC6CCC(C5)N6)nc(OCC5(CN6CCC(F)CC6)CC5)nc4c3F)c12 [Example 23]", "6.00 to 7.00"],
  ["C#Cc1c(F)ccc2cc(O)cc(-c3ncc4c(N5CC6CCC(C5)N6)nc(OCC5(CN6CCC(F)CC6)CC5)nc4c3F)c12 [Example 1]", "> 7.00"],
  ["C#Cc1c(F)ccc2cc(O)cc(-c3ncc4c(N5CC6CCC(C5)N6)nc(OCC5(CN6CC7C(C#N)C7C6)CC5)nc4c3F)c12 (stereo not drawn) [Example 44]", "> 7.00"]
]}

Provide pIC50 values for the following items, in order.
1. C#Cc1c(F)ccc2cc(O)cc(-c3nc(N)c4c(N5CC6CCC(C5)N6)nc(OCC5(CN6CCC(F)CC6)CC5)nc4c3F)c12 [Example 46]
2. C#Cc1c(F)ccc2cc(O)cc(-c3ncc4c(N5CC6CCC(C5)N6)nc(OCC5(CN6CCC(C#N)CC6)CC5)nc4c3F)c12 [Example 11]
3. C#Cc1c(F)ccc2cc(O)cc(-c3ncc4c(N5CC6CCC(C5)N6)nc(OCC5(CN6CCC(OC)CC6)CC5)nc4c3F)c12 [Example 12]

Result:
> 7.00
> 7.00
> 7.00

---

# Assay procedure: Oral bioavailability in CD-1 mice
# Particulars: male, CD-1, mouse, blood
Lab note: anything with bioavailability at or over 6% counts as 1.0; the rest go in 0.0.

Ask: Say whether C#Cc1c(F)ccc2cc(O)cc(-c3nc(OC)c4c(N5CC6CCC(C5)N6)nc(OCC5(CN6CC7C(C#N)C7C6)CC5)nc4c3F)c12 (centres unmarked) shows bioavailability of 6% or more.
Result: 0.0

Ask: Say whether C#Cc1c(F)ccc2cc(O)cc(-c3ncc4c(N5CC6CCC(C5)N6)nc(OCC5(CN6CC7C(C6)C7C(F)(F)F)CC5)nc4c3F)c12 (centres unmarked) shows bioavailability of 6% or more.
Result: 1.0

---

Exercise: state measured bioavailability for each of the compounds provided.
# Assay procedure: in vivo
# Particulars: male, CD-1, mouse, po
Numbers only, in %.

Solved entries (count: 8):
{"columns": ["Compound", "Readout type", "Quantity unit", "Quantitative result"],
 "data": [
  ["COc1nc(-c2cc(N)cc(Cl)c2C(F)(F)F)c(F)c2nc(OCC3(CN4CC5CC5C4)CC3)nc(N3CC4CCC(C3)N4)c12 (stereo not drawn) [Example 165]", "bioavailability", "%", 13.8],
  ["C#Cc1c(F)ccc2cc(O)cc(-c3ncc4c(N5CC6CCC(C5)N6)nc(OCC5(CN6CC7C(F)C7C6)CC5)nc4c3F)c12 (stereo not drawn) [Example 149]", "bioavailability", "%", 12.9],
  ["C#Cc1c(F)ccc2cc(O)cc(-c3nc(OC)c4c(N5CC6CCC(C5)N6)nc(OCC5(CN6CC7C(F)C7C6)CC5)nc4c3F)c12 (stereo not drawn) [Example 155]", "bioavailability", "%", 8.03],
  ["C#Cc1c(F)ccc2cc(O)cc(-c3nc(OC)c4c(N5CC6CCC(C5)N6C(=O)OCOC(=O)C(C)C)nc(OCC5(CN6CC7CC7C6)CC5)nc4c3F)c12 (stereo not drawn) [Example 148]", "bioavailability", "%", 6.8],
  ["[2H]C([2H])([2H])Oc1nc(-c2cc(O)cc3ccc(F)c(C#C)c23)c(F)c2nc(OCC3(CN4CC5C(F)C5C4)CC3)nc(N3CC4CCC(C3)N4)c12 (stereo not drawn) [Example 167]", "bioavailability", "%", 7.14],
  ["C#Cc1c(F)ccc2c(F)c(O)cc(-c3nc(OC)c4c(N5CC6CCC(C5)N6)nc(OCC5(CN6CC7CC7C6)CC5)nc4c3F)c12 (stereo not drawn) [Example 168]", "bioavailability", "%", 13.6],
  ["C#Cc1cccc2cc(O)cc(-c3ncc4c(N5CC6CCC(C5)N6)nc(OCC5(CN6CC7C(C6)C7(F)F)CC5)nc4c3F)c12 (stereo not drawn) [Example 100]", "bioavailability", "%", 1.7],
  ["C#Cc1c(F)ccc2cc(N)cc(-c3nc(OC)c4c(N5CC6CCC(C5)N6)nc(OCC5(CN6CC7CC7C6)CC5)nc4c3F)c12 (stereo not drawn) [Example 184]", "bioavailability", "%", 5.75]
]}

Continue with the compound presented below.
Ask: Fill in the blank: the reported bioavailability of C#Cc1c(F)ccc2cc(O)cc(-c3nc(OC)c4c(N5CC6CCC(C5)N6C(=O)OC(C)OC(C)=O)nc(OCC5(CN6CC7CC7C6)CC5)nc4c3F)c12 (stereo not drawn) [Example 146] is ____.
Result: 8.3

---

# Assay procedure: Oral bioavailability in CD-1 mice
# Particulars: male, CD-1, mouse, blood
Readout type: bioavailability (%)
One number for each entry, in %.

Solved entries (count: 2):
{"columns": ["Molecule", "Quantity unit", "bioavailability"],
 "data": [
  ["C#Cc1c(F)ccc2cc(O)cc(-c3ncc4c(N5CC6CCC(C5)N6)nc(OCC5(CN6CCC(C(F)(F)F)CC6)CC5)nc4c3F)c12", "%", 5.81],
  ["C#Cc1c(F)ccc2cc(O)cc(-c3ncc4c(N5CC6CCC(C5)N6)nc(OCC5(CN6CC7CC7C6)CC5)nc4c3F)c12 (stereo not drawn)", "%", 1.98]
]}

Ask: Fill in the blank: the reported bioavailability of C#Cc1c(F)ccc2cc(O)cc(-c3nc(OC)c4c(N5CC6CCC(C5)N6)nc(OCC5(CN6CC7C(C6)C7(F)F)CC5)nc4c3F)c12 (stereo not drawn) is ____.
Result: 3.82
